Measured IC50 on UniProt:Q92918 follows.
Sequence (Q92918 whole entry): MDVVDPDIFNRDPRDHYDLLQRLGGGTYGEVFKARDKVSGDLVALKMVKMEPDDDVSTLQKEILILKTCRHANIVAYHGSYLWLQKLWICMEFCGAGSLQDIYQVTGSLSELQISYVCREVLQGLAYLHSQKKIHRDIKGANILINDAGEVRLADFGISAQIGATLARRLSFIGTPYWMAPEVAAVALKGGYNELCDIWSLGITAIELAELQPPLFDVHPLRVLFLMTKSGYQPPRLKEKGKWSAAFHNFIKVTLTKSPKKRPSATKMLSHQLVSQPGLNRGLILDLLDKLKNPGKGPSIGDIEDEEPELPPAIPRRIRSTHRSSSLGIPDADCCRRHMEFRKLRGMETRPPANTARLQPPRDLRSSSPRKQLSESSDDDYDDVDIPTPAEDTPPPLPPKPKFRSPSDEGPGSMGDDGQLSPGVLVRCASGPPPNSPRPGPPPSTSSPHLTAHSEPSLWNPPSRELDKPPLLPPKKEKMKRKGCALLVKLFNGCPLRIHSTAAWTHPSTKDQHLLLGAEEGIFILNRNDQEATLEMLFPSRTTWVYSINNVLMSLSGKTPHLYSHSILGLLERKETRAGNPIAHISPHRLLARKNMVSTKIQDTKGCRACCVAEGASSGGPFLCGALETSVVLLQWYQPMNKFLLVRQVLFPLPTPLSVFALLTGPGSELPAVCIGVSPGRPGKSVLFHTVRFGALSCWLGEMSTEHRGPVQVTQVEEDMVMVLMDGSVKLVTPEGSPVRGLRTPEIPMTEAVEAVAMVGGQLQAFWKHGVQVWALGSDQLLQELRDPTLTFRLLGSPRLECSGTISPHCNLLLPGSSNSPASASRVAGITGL

{"columns": ["compound", "result"],
 "data": [
  ["CC(O)(c1ccc(F)c(-c2cc(Nc3ccc(N4CCC(O)CC4)cn3)c3c(=O)[nH]ccc3n2)c1)C(F)(F)F (single isomer, unassigned)", "≤ 100 nM"]
]}

The compound CCNC(=O)c1ccc(Nc2nc(C(C)C)nc3cc[nH]c(=O)c23)cc1 on UniProt:Q92918: IC50 was 100 to 1000 nM

UniProt:Q92918 assay, compound O=c1[nH]ccc2nc(N3CCCC(O)C3)cc(Nc3ccc(N4CCC(O)CC4)cn3)c12 (stereo not shown) , recorded IC50 = 100 to 1000 nM
